- System under test: rhMAO-A (Homo sapiens, UniProt P21397)
- Construct: purchased Sigma
- Sequence (P21397 whole entry): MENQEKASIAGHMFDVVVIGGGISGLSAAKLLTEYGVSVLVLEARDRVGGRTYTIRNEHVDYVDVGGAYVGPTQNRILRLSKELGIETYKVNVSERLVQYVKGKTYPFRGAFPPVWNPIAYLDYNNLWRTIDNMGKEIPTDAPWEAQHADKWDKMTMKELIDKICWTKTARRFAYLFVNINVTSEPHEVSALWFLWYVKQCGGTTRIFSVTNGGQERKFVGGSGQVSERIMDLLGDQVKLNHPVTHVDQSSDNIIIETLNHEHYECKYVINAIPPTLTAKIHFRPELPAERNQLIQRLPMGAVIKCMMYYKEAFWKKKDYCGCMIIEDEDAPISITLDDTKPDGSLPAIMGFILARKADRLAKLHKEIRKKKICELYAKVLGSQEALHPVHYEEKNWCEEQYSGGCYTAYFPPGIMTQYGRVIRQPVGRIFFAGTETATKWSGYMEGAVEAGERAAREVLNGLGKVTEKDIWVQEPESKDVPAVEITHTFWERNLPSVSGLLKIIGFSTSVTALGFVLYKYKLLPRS
- Assay notes: MAO Assay (modified Promega MAO-Glo), MAO-A inhibition
- Assay type: biochemical
- Condition summary: substrate 10 μM, 1 hour at room temperature, class symbols
pIC50: −log10 of the molar value.
# pIC50 values compiled below
Endpoint name: pIC50

Compound: CCCCc1cn2cc(OC/C(=C/F)CN)ccc2n1 [Example 1, bis(4-methylbenzenesulfonate)]
Measured: 4.52 to 5.00
//
Compound: NC/C(=C/F)COc1ccc2nc(C3CCCC3)cn2c1 [Example 9, 4-methylbenzenesulfonate]
Measured: 5.00 to 6.00
//
Compound: CCCCc1cn2ccc(OC/C(=C/F)CN)cc2n1 [Example 2, 4-methylbenzenesulfonate]
Measured: 4.52 to 5.00
//
Compound: CCCCc1cn2cc(OC/C(=C\F)CN)ccc2n1 [Example 5, 4-methylbenzenesulfonate]
Measured: 4.52 to 5.00
//
Compound: CCCCc1nc2cc(OC/C(=C/F)CN)ccn2n1 [Example 3, 4-methylbenzenesulfonate]
Measured: 4.52 to 5.00
//
Compound: CCCCc1cc2cc(OC/C(=C/F)CN)ccn2n1 [Example 8, bis(4-methylbenzenesulfonate)]
Measured: 5.00 to 6.00
//
Compound: CCCCc1cc2ccc(OC/C(=C/F)CN)cn2n1
Measured: 4.52 to 5.00
//
Compound: CCCCc1nc2ccc(OC/C(=C/F)CN)cn2n1 [Example 4, 4-methylbenzenesulfonate]
Measured: 4.52 to 5.00
